All figures here come from patent US20260191974A1.

Target: T1, human B7-H3 (hB7-H3) (human, UniProt Q5ZPR3 29-461, limits assumed)
T1 construct: The construct is not described
T1 sequence (looked up): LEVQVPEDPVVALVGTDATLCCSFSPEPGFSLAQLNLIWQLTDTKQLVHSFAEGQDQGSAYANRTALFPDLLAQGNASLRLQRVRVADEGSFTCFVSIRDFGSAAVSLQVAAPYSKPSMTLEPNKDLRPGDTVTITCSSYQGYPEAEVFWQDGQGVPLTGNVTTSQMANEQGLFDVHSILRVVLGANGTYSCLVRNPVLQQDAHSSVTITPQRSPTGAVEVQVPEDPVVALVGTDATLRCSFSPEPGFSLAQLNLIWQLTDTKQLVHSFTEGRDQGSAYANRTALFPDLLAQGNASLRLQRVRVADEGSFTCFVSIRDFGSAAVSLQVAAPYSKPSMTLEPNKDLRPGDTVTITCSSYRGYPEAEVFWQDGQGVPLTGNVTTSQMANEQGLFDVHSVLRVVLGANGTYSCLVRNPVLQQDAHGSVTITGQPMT
Test: SPR; oxidized (with disulfide bridge)
measured endpoint: Kd (nM)
API: value field is a number in nM; no unit string.

Return Kd (reported value) for this binder: WALQLCHSMFYTCKSG (N-terminal acetylation (ac); lactam (isopeptide) bridge Q4-K14; disulfide bond C6-C13, Made by solid phase synthesis on Rink Amide resin; also called Selected B1.1; oxidized B1.1 (with disulfide bridge))
105
